OD listing for selected binders.
molecular target: T1, CTLA4-Fc fusion protein (human, biotinylated where used as CTLA4-Fc-Biotin (Examples 5.1-5.3)); assay: competitive ELISA: CD80-Fc-Biotin signal on coated CTLA4-Fc with 500 ng VHH/well; competitor CD80-Fc-Biotin
T1 construct: expressed in HEK293 cells; also called human CTLA4-Fc protein; CTLA4-Fc antigen protein
The reply should be a number in OD405, with the unit left off.

Here are 5 binders together with their reported answers.
CTLA4 heavy chain single domain antibody No. C16 (VHH, Camel VHH expressed in E. coli (PET32b), nickel-purified) VHH: QVQLQESGGGSVQAGGSLTLSCAASGYTGDLVAWFRQTPGKEREGVAAISRTGLTTYYADSVKGRFTISQDTAKNTGYLQMNSMKPEDTAMYYCVAGWHVGGTWYKTSSYDYWGQGTQVTVSS    1.89
CTLA4 heavy chain single domain antibody No. J29 (VHH, Camel VHH expressed in E. coli (PET32b), nickel-purified) VHH: QVQLQESGGGLVQPGGSLRLSCAASGFTISSYTMTWLHQAPGKGLEWVSTINSGGSTAYADSVKGRFAISRDNAKNTLYLQLNSLKIEDTGMYYCQGGLTQRGQGTQVTVSS    2.5
CTLA4 heavy chain single domain antibody No. C38 (VHH, Camel VHH expressed in E. coli (PET32b), nickel-purified) VHH: QVQLQESGGGSVQAGGSLRLSCAASRYTASSNCMAWFRQAPGKEREGVATIYNGGGSTAYADSVKGRFTISQDNAKNTVYLQMNSLKPEDTAMYYCGAGSPRFCASATMTGGHHLFGYWGQGTQVTVSS    2.28
CTLA4 heavy chain single domain antibody No. 119 (VHH, Camel VHH expressed in E. coli (PET32b), nickel-purified) VHH: QVQLQESGGGSVQAGGSLRLSCAASEYTYHTNCMGWFRQAPGKEREGLAVMNPSGGVTYFADSVKGRFTISRDNAKNTVYLQMNSLKPEDTAMYYCAAGRGRCSGYSGYYNEWGQGTQVTVSS    2.53
CTLA4 heavy chain single domain antibody No. J69 (VHH, Camel VHH expressed in E. coli (PET32b), nickel-purified) VHH: QVQLQESGGGLVQPGGSLRLSCAASGFTLSSYSMTWLRQAPGKGLEWVSTINSGGSTSYADSVKGRFAISRDNAKNTLYLQLNSLEIEDTGMYYCQGGLTRGQGTQVTVSS    2.34

**Query** Which OD is reported for this binder? CTLA4 heavy chain single domain antibody No. J5 (VHH, Camel VHH expressed in E. coli (PET32b), nickel-purified) VHH: QVQLQESGGGSVQAGGSLRLSCAASGYTYSTYCMAWFRQVPEKERERVASIYTGGGTTYYADSVKGRFTISLDNAKNTLYLQMNSLKPEDTAMYYCAKSAARCDSSRDVNRLGYWGQGTQVTVSS
**Result** 2.5

**Query** Now this one: CTLA4 heavy chain single domain antibody No. C27 (VHH, Camel VHH expressed in E. coli (PET32b), nickel-purified) VHH: QVQLQESGGGSVQAGGSLRLSCAASGYIYSAYCMGWFRQAPGKERVGVAAISIGGGSTYYADSVKGRFTISQDNAKNTLYLQMNSLKPEDTAMYYCAADVIPTETCLGGSWSGPFGYWGQGTQVTVSS
**Result** 0.04

Measured values drawn from patent US20190315864A1 for this set.
